Source of measurements: patent US12458605B2

- METHOD_SUMMARY: Nucleic acid encapsulation rate by Ribogreen (section II)
- Assay type: physicochemical
- TEST_CONDITIONS: pFluc-loaded LNP, N/P ratio 9
MEASUREMENT_NAME: % pDNA encapsulation (%)
Report the value in % with no unit label.

>  <MOLECULE>
CCCCCCCC/C=C\CCCCCCCC(=O)OCCCCCCC(O)(CCCCCCOC(=O)CCCCCCC/C=C\CCCCCCCC)CCCCN(CCC)CCC [CL4H6, reference compound]

>  <DISPLAY_UNIT>
%

>  <% pDNA encapsulation>
70

$$$$
>  <MOLECULE>
CC(CCC(C(=O)OCCCCCCC(O)(CCCCCCOC(=O)C(CCC(C)CC(C)(C)C)C(C)CC(C)(C)C)CCCCOC(=O)C1CCN(C)CC1)C(C)CC(C)(C)C)CC(C)(C)C (stereo not drawn)

>  <DISPLAY_UNIT>
%

>  <% pDNA encapsulation>
91.1

$$$$

Please look at the following molecule next.
Req: Identify % pDNA encapsulation associated with the molecule CCCN(CCC)CCCCC(O)(CCCCCCOC(=O)C(CCC(C)CC(C)(C)C)C(C)CC(C)(C)C)CCCCCCOC(=O)C(CCC(C)CC(C)(C)C)C(C)CC(C)(C)C (stereo not drawn)
Resp: 94.5

====

- METHOD_SUMMARY: Average particle size (ζ-Average) and PDI by dynamic light scattering (Zetasizer Nano ZSP)
- Assay type: physicochemical
- TEST_CONDITIONS: FlucmRNA-loaded LNP, lipid:DSPC:cholesterol:DMG-PEG2K 50:10:38.5:1.5
Parameter: ζ-Average (nm). Scope: all listed entries.
Report the value in nm with no unit label.

>  <COMPOUND>
CCCCCCC(CCCCCC)C(=O)OCCCCCCC(O)(CCCCCCOC(=O)C(CCCCCC)CCCCCC)CCCCN(CCC)CCC

>  <DISPLAY_UNIT>
nm

>  <VALUE_OBSERVED>
88.78

$$$$
>  <COMPOUND>
CCCCCCCCC(CCCCCCCC)C(=O)OCCCCCCC(O)(CCCCCCOC(=O)C(CCCCCCCC)CCCCCCCC)CCCCN(CCC)CCC

>  <DISPLAY_UNIT>
nm

>  <VALUE_OBSERVED>
81.99

$$$$

Req: Identify ζ-Average (nm) associated with the compound CCCCCCCC(CCCCCC)C(=O)OCCCCCCC(O)(CCCCCCOC(=O)C(CCCCCC)CCCCCCC)CCCCN(CCC)CCC (stereo not shown)
Resp: 89.18

Req: Identify ζ-Average (nm) associated with the compound CCCCCCCCC(CCCCCCC)C(=O)OCCCCCCC(O)(CCCCCCOC(=O)C(CCCCCCC)CCCCCCCC)CCCCN(CCC)CCC (stereo not shown)
Resp: 79.68

Req: Identify ζ-Average (nm) associated with the compound CCCCCCCCCC(CCCCCCC)C(=O)OCCCCCCC(O)(CCCCCCOC(=O)C(CCCCCCC)CCCCCCCCC)CCCCOC(=O)C1CCN(C)CC1 (stereo not shown) [CL15F 11-7]
Resp: 102.50

Req: Identify ζ-Average (nm) associated with the compound CCCCCCCCCC(CCCCCCCCC)C(=O)OCCCCCCC(O)(CCCCCCOC(=O)C(CCCCCCCCC)CCCCCCCCC)CCCCOC(=O)C1CCN(C)CC1 [CL15F 11-9]
Resp: 99.31

Req: Identify ζ-Average (nm) associated with the compound `CCCCC(CCCC)C(=O)OCCCCCCC(O)(CCCCCCOC(=O)C(CCCC)CCCC)CCCCN(CCC)CCC`
Resp: 141.10

====

- METHOD_SUMMARY: Average particle size and PDI by dynamic light scattering (Zetasizer Nano ZS)
- Assay type: physicochemical
- TEST_CONDITIONS: NlucmRNA-loaded LNP, lipid:DSPC:cholesterol:PEG-DMG 60:10:40:1
Mark class 1 for ζ-Average (nm) under 90 nm, class 0 if at or over.

Req: In plain terms, does CCCCCCCC/C=C\CCCCCCCC(=O)OCCCCCCC(O)(CCCCCCOC(=O)CCCCCCC/C=C\CCCCCCCC)CCCCN(CCC)CCC [CL4H6, reference compound] come in under 90 nm for ζ-Average (nm)?
Resp: class 0

Req: In plain terms, does CC(CCC(C(=O)OCCCCCCC(O)(CCCCCCOC(=O)C(CCC(C)CC(C)(C)C)C(C)CC(C)(C)C)CCCCOC(=O)C1CCN(C)CC1)C(C)CC(C)(C)C)CC(C)(C)C (stereo not drawn) [CL15G6] come in under 90 nm for ζ-Average (nm)?
Resp: class 1

Req: In plain terms, does CCCN(CCC)CCCCC(O)(CCCCCCOC(=O)C(CCC(C)CC(C)(C)C)C(C)CC(C)(C)C)CCCCCCOC(=O)C(CCC(C)CC(C)(C)C)C(C)CC(C)(C)C (stereo not drawn) [CL4G6] come in under 90 nm for ζ-Average (nm)?
Resp: class 0

Req: In plain terms, does CCCCCCCCC(CCCCCC)C(=O)OCCCCCCC(O)(CCCCCCOC(=O)C(CCCCCC)CCCCCCCC)CCCCN(CCC)CCC (stereo not drawn) [CL4F6] come in under 90 nm for ζ-Average (nm)?
Resp: class 0

Req: In plain terms, does CCCCCCCC/C=C\CCCCCCCC(=O)OCCCCCCC(O)(CCCCCCOC(=O)CCCCCCC/C=C\CCCCCCCC)CCCCOC(=O)C1CCN(C)CC1 [CL15H6, reference compound] come in under 90 nm for ζ-Average (nm)?
Resp: class 0

====

- METHOD_SUMMARY: siRNA/mRNA encapsulation rate by Ribogreen reagent (section IV)
- Format: physicochemical
- TEST_CONDITIONS: F7siRNA-loaded LNP, 50:10:38.5:1.5, N/P ratio 6
MEASUREMENT_NAME: % siRNA encapsulation (%)
Report the value in % with no unit label.

# example entries with known answers
>  <COMPOUND>
CCCCC(CCCC)C(=O)OCCCCCCC(O)(CCCCCCOC(=O)C(CCCC)CCCC)CCCCOC(=O)C1CCN(C)CC1 [CL15F 6-4]

>  <DISPLAY_UNIT>
%

>  <VALUE_OBSERVED>
91.5

$$$$
>  <COMPOUND>
CCCCCCCC/C=C\CCCCCCCC(=O)OCCCCCCC(O)(CCCCCCOC(=O)CCCCCCC/C=C\CCCCCCCC)CCCCN(CCC)CCC [CL4H6, reference compound]

>  <DISPLAY_UNIT>
%

>  <VALUE_OBSERVED>
96.1

$$$$

Please look at the following compound next.
Req: Identify % siRNA encapsulation associated with the compound CCCCC(CC)C(=O)OCCCCCCC(O)(CCCCCCOC(=O)C(CC)CCCC)CCCCOC(=O)C1CCN(C)CC1 (stereo not drawn) [CL15F 6-2]
Resp: 100.4

====

- Tested on: liver
- METHOD_SUMMARY: In vivo Fluc activity of FlucmRNA-loaded LNP by in vivo imaging, liver
- TEST_CONDITIONS: Balb/c mice, FlucmRNA-loaded LNP i.v. 0.1 mg mRNA/kg, 6 hours
Parameter: Fluc Activity in liver. Scope: all listed entries.
Enter the number, and then the unit.

# example entries with known answers
>  <COMPOUND>
CCCCCCCCC(CCCCCCCC)C(=O)OCCCCCCC(O)(CCCCCCOC(=O)C(CCCCCCCC)CCCCCCCC)CCCCN(CCC)CCC

>  <TARGET_SYSTEM>
liver

>  <VALUE_OBSERVED>
5.14E+07 Avg Radiance [p/s/cm2/sr]

$$$$
>  <COMPOUND>
CCCCCCCCCC(CCCCC)C(=O)OCCCCCCC(O)(CCCCCCOC(=O)C(CCCCC)CCCCCCCCC)CCCCN(CCC)CCC (stereo not shown)

>  <TARGET_SYSTEM>
liver

>  <VALUE_OBSERVED>
4.50E+07 Avg Radiance [p/s/cm2/sr]

$$$$

Req: Identify Fluc Activity in liver associated with the compound CCCCCCCC(CCC)C(=O)OCCCCCCC(O)(CCCCCCOC(=O)C(CCC)CCCCCCC)CCCCN(CCC)CCC (stereo not shown)
Resp: 2.96E+07 Avg Radiance [p/s/cm2/sr]

Req: Identify Fluc Activity in liver associated with the compound CCCCCCCCCC(CCCCCCC)C(=O)OCCCCCCC(O)(CCCCCCOC(=O)C(CCCCCCC)CCCCCCCCC)CCCCOC(=O)C1CCN(C)CC1 (stereo not shown) [CL15F 11-7]
Resp: 1.10E+07 Avg Radiance [p/s/cm2/sr]

Req: Identify Fluc Activity in liver associated with the compound CCCCCCCC(CCCCCCC)C(=O)OCCCCCCC(O)(CCCCCCOC(=O)C(CCCCCCC)CCCCCCC)CCCCOC(=O)C1CCN(C)CC1 [CL15F 9-7]
Resp: 6.76E+06 Avg Radiance [p/s/cm2/sr]

Req: Identify Fluc Activity in liver associated with the compound CCCCCCCCC(CCCC)C(=O)OCCCCCCC(O)(CCCCCCOC(=O)C(CCCC)CCCCCCCC)CCCCOC(=O)C1CCN(C)CC1 (stereo not shown) [CL15F 10-4]
Resp: 2.07E+06 Avg Radiance [p/s/cm2/sr]

Req: Identify Fluc Activity in liver associated with the compound CCCCCCCCCCCCCCCC(=O)OCCCCCCC(O)(CCCCCCOC(=O)CCCCCCCCCCCCCCC)CCCCOC(=O)C1CCN(C)CC1 [CL15F 16-0]
Resp: 1.97E+05 Avg Radiance [p/s/cm2/sr]
